System: E. cloacae Nek39
Experiment: MIC against standard strains (Table 1), E. cloacae Nek39
Format: cell-based
Conditions: Enterobacter cloacae, Muller-Hinton agar, overnight 37° C., read-out: MIC (minimum growth inhibitory concentration)
measured_metric: MIC (µg/mL)

                                   compound  rel  reported_measurement
0  CO/N=C(\C(=O)N[C@@H]1C(=O)N2C(C(=O)[O-])=C(/C=C/C[n+]3cccc(-c4csc(N)n4)c3)CS[C@H]12)c1csc(N)n1    =                  3.13
1  NC(=O)c1ccc[n+](C/C=C/C2=C(C(=O)[O-])N3C(=O)[C@@H](NC(=O)/C(=N\O)c4csc(N)n4)[C@H]3SC2)c1    =                  6.25
2  Nc1nc(/C(=N/O)C(=O)N[C@@H]2C(=O)N3C(C(=O)[O-])=C(/C=C/C[n+]4cccc(-c5csc(N)n5)c4)CS[C@H]23)cs1    =                  6.25
3  CO/N=C(\C(=O)N[C@@H]1C(=O)N2C(C(=O)[O-])=C(/C=C/C[n+]3cccc(NC(N)=O)c3)CS[C@H]12)c1csc(N)n1    =                  3.13
4  NC(=O)c1cc[n+](C/C=C/C2=C(C(=O)[O-])N3C(=O)[C@@H](NC(=O)/C(=N\O)c4csc(N)n4)[C@H]3SC2)cc1    =                  12.5
5  CN(C)CCn1nnnc1SCC1=C(C(=O)O)N2C(=O)[C@@H](NC(=O)Cc3csc(N)n3)[C@H]2SC1 [CTM, cefotiam, reference compound]    >                   100
6  CO[C@@]1(NC(=O)CSC(F)F)C(=O)N2C(C(=O)O)=C(CSc3nnnn3CCO)CO[C@@H]21 [FMOX, flomoxef, reference compound]    =                   100
7  NC(=O)Nc1ccc[n+](C/C=C/C2=C(C(=O)[O-])N3C(=O)[C@@H](NC(=O)/C(=N\O)c4csc(N)n4)[C@H]3SC2)c1    =                  6.25

* * *

Tested on: P. vulugaris OX-19
Experiment: MIC against standard strains (Table 1), P. vulugaris OX-19
Type: cell-based
Settings: Muller-Hinton agar, overnight 37° C., read-out: MIC (minimum growth inhibitory concentration)
Entries annotated with measured MIC
measured_metric: MIC

>>> df
                                   molecule  measured_metric  reported_measurement
0  CO/N=C(\C(=O)N[C@@H]1C(=O)N2C(C(=O)[O-])=C(/C=C/C[n+]3cccc(-c4csc(N)n4)c3)CS[C@H]12)c1csc(N)n1              MIC           0.025 µg/mL
1  NC(=O)c1ccc[n+](C/C=C/C2=C(C(=O)[O-])N3C(=O)[C@@H](NC(=O)/C(=N\O)c4csc(N)n4)[C@H]3SC2)c1              MIC             0.1 µg/mL
2  NC(=O)Nc1ccc[n+](C/C=C/C2=C(C(=O)[O-])N3C(=O)[C@@H](NC(=O)/C(=N\O)c4csc(N)n4)[C@H]3SC2)c1              MIC            0.05 µg/mL
3  NC(=O)c1cc[n+](C/C=C/C2=C(C(=O)[O-])N3C(=O)[C@@H](NC(=O)/C(=N\O)c4csc(N)n4)[C@H]3SC2)cc1              MIC             0.1 µg/mL
4  CN(C)CCn1nnnc1SCC1=C(C(=O)O)N2C(=O)[C@@H](NC(=O)Cc3csc(N)n3)[C@H]2SC1 [CTM, cefotiam, reference compound]              MIC            0.39 µg/mL
5  CO/N=C(\C(=O)N[C@@H]1C(=O)N2C(C(=O)[O-])=C(/C=C/C[n+]3cccc(NC(N)=O)c3)CS[C@H]12)c1csc(N)n1              MIC           0.025 µg/mL
6  CO[C@@]1(NC(=O)CSC(F)F)C(=O)N2C(C(=O)O)=C(CSc3nnnn3CCO)CO[C@@H]21 [FMOX, flomoxef, reference compound]              MIC            0.39 µg/mL
7  Nc1nc(/C(=N/O)C(=O)N[C@@H]2C(=O)N3C(C(=O)[O-])=C(/C=C/C[n+]4cccc(-c5csc(N)n5)c4)CS[C@H]23)cs1              MIC            0.05 µg/mL
